# assay_comment: yeast display, Sf9 membrane polyspecificity reagent, FACS + sequencing; frameworks hold sequencing errors
readout_kind: polyreactivity (PSR sort gate)

A selection of reference data follows.
QVQLVESGAGLVQAGGSLRLSCAASGIIFASNAMGWYRQAPGKERELLATINWTDSSTYYADSVKGRFTISRDNAKNTVYLQMNSLKPEDTAVYYCNAVPHWFYRYGRYDYWGQGTQVTVSS	low polyreactivity
QVQLVESGGGLVQAGGSLRLSCAPSRSTFWRYAMGWYRQAPGKERELFARISWSAGSTYYADSVKGRFTISRDNAKNTVYLQMNRLKPEDSAVYYCAAQPYKYSGRYQSKPYLLLYDYWGQGTQVTVSS	high polyreactivity
QVQLVESGGGLVQAGGSLRLSCAAAGRTFGDYDMGWYRQAPGKERELVAAITSDGTTYYADYVKGRFTISGDNAKNTVYLQMNSLKPEDTAVYYCAADYWYVSWYDYWGHGTQVTVSS	low polyreactivity
QVQLVESGGALVQAGGSLRLSCAASGRTFGSYAMGWDRQAPGKESELVAAISRRGGSTYYADSVKGRFTISRDNAKNTVYLQLNSLKPEDSAVYYCAVRKASDYYYWGQGTQVTVSS	high polyreactivity
QVQLVESGGGLVQAGGSLRLSCAASGRIFTFYARGLDRQAPGKEREMVAAISSGGSTYYADSVKGRFTISRDNAKNTVYLQMNSLKPEDTAVYYCATQGARYYHTYGYWGQGTLVTVSS	low polyreactivity
QVQLEESGGGLVQAGGSLRLSCAATGSTFGYAMGWYSQATGKEGEWVAALTSTGGSTYYADSLKGRFTISRDKAKNTVDLQMNSLKPYDTAVYYCAADAYWIRSRFLYRIRYNYWGQGTQVTVSS	high polyreactivity
QVQLVESGGGLVQAGGSLRLSCAASGSIFYTNAMGWYRQAPGKEREFVAGITRRGTSTNYADSVKGRFTISRDKAKNTVYLQMNSQKPEDTAVYYCNARYYLYWGQGTQVTVSS	low polyreactivity
QVQLVESGGGLVQAGGSLRLSCAASGRIFDWYAMGWYRQAPGKERELVAAISTSGANTYYADSVKGRITISRDNAKNTVYLQMNSLKPEDSGVYYCATDPYQPYEGDYWGQGTQVTVSS	low polyreactivity

Report polyreactivity (PSR sort gate) for "QVQLVESGGGLVQAGGSLRLSCAASGSIFAYYAMGWYRQAPGKEREFVARITYSTDGTYYADSVKGRFTISRDNAKNTVYLQMNSLKPEDTAVYYCAVDTWWGFKRYKFDYWGQGTQVTVSS" please.
low polyreactivity

How about this sequence: "QVQLVESGGGLVQAGGSLRLSCAASGSTFKFYTMGWYRQAPGKERELVATIDWSGGSTYYADSVKGRFTISRDNAKNTVYLQMNSLKPEDTAVYYCAAYSRSRTTRLGKYYYWGQGTQVTVSS"
high polyreactivity

Follow-up entry: "QVQLVESGGGLVQAGGSLRLSCAASGRTFPYNAMGWYRQAPGKERELVAAISSGGTTNYADSVKGRFTISRDNAKNTVYLQMNSLKPEDTAVYYCAADSVDSSQFRRDYWGQGTQVTVSS"
low polyreactivity
